Measured abundance fitness, listed per entry.
B1: Cyclin-F, residues 28 to 80; numbered along this chain, P41002 (parent)
chain: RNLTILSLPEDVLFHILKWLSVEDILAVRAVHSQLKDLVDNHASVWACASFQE

Variants of: B1
method_notes: abundance fitness (aPCA) (normalised: wild type 0, dead -1); higher = more abundant; growth selection in yeast, the domain comes from the species named
experimental_parameters: Homo sapiens
Just the number, please, no unit attached.

# count of solved cases: 5
- sequence_input: "RNLTILSLPEDVLFHILKWLSVEDILAVRQVHSQLKDLVDNHASVWACASFQE [A30Q]"
  readout_number: -0.031
- sequence_input: "RNLTILSLPEDVLDHILKWLSVEDILAVRAVHSQLKDLVDNHASVWACASFQE [F14D]"
  readout_number: -0.762
- sequence_input: "RNLTILSLPEDVLFHILKWLSVEDILAVRANHSQLKDLVDNHASVWACASFQE [V31N]"
  readout_number: -0.586
- sequence_input: "RNLTILSLPEDVLFHILKWLSVEDILPVRAVHSQLKDLVDNHASVWACASFQE [A27P]"
  readout_number: -0.44
- sequence_input: "RNLTILSLPEDRLFHILKWLSVEDILAVRAVHSQLKDLVDNHASVWACASFQE [V12R]"
  readout_number: -0.909

Problem: Fill in the blank: the reported abundance fitness of RNLTILSLPEDVLFTILKWLSVEDILAVRAVHSQLKDLVDNHASVWACASFQE [H15T] is ____.
Solution: -0.455

Problem: Fill in the blank: the reported abundance fitness of RNLTILSLPEDVLFHILKWLSVEDILAVRAVHSQLKDLVDNHNSVWACASFQE [A43N] is ____.
Solution: -0.303

Problem: Fill in the blank: the reported abundance fitness of RNLTILSLPEDVLFHILKWLSVEDILAVRAVHSQLKDLVDSHASVWACASFQE [N41S] is ____.
Solution: 0.052
